Would you mind telling me the reported activity change, negative = inhibition of each entry?
Experiment: inhibitors of cytokine-induced nitrite release, dose response, cell-based, Griess absorbance, INS-1E, dry powder, set 3 (AID 488870)
Conditions: INS-1E cytokine-induced nitrite, Griess absorbance, 48 h; at 19.5 µM (top of the series)
Active and inactive are the calls of the source.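 The calls were made as follows: active = a drop in nitrite signal whose fitted half-maximal concentration is at most ten times the top tested dose; inconclusive = flat fit with 30 to 70% inhibition, or poor curve fit; inactive = the rest.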

INPUT: I would be grateful if you could share the reported activity change, negative = inhibition for COc1ccc(S(=O)(=O)N(C)C[C@@H]2Oc3c(NS(C)(=O)=O)cccc3C(=O)N([C@@H](C)CO)C[C@H]2C)cc1 .
OUTPUT: -4.1% (inactive)

INPUT: Entry COc1ccc(S(=O)(=O)N(C)C[C@@H]2Oc3c(NC(=O)c4cccc5ccccc45)cccc3C(=O)N([C@@H](C)CO)C[C@H]2C)cc1 please
OUTPUT: -13.8% (inactive)

INPUT: Entry Cc1ccc(S(=O)(=O)N(C)C[C@@H]2Oc3c(NC(=O)Nc4ccccc4)cccc3C(=O)N([C@@H](C)CO)C[C@H]2C)cc1 please
OUTPUT: -10.1% (inactive)

INPUT: Entry C[C@@H]1CN([C@@H](C)CO)C(=O)c2cccc(NC(=O)Nc3cccc4ccccc34)c2O[C@H]1CN(C)C(=O)Nc1ccc(F)cc1 please
OUTPUT: -13.6% (inactive)

INPUT: Entry COc1ccc(S(=O)(=O)N(C)C[C@@H]2Oc3c(cccc3N(C)C)C(=O)N([C@@H](C)CO)C[C@H]2C)cc1 please
OUTPUT: 4.92% (inactive)

INPUT: Entry COc1ccc(S(=O)(=O)N(C)C[C@@H]2Oc3c(NC(=O)C4CCOCC4)cccc3C(=O)N([C@@H](C)CO)C[C@H]2C)cc1 please
OUTPUT: 5.9% (inactive)

INPUT: Entry COc1ccc(S(=O)(=O)N(C)C[C@@H]2Oc3c(NC(=O)Nc4c(C)noc4C)cccc3C(=O)N([C@@H](C)CO)C[C@H]2C)cc1 please
OUTPUT: -4.75% (inactive)

INPUT: Entry COc1ccc(S(=O)(=O)N(C)C[C@@H]2Oc3c(NC(=O)Nc4ccc(C(F)(F)F)cc4)cccc3C(=O)N([C@@H](C)CO)C[C@H]2C)cc1 please
OUTPUT: -18.3% (inactive)

INPUT: Entry COc1ccc(S(=O)(=O)N(C)C[C@@H]2Oc3c(NC(=O)Nc4cccc5ccccc45)cccc3C(=O)N([C@@H](C)CO)C[C@@H]2C)cc1 please
OUTPUT: -1.85% (inactive)

INPUT: Entry COc1ccc(S(=O)(=O)N(C)C[C@@H]2Oc3c(NS(=O)(=O)c4cn(C)cn4)cccc3C(=O)N([C@@H](C)CO)C[C@H]2C)cc1 please
OUTPUT: 4.99% (inactive)

INPUT: Entry COc1ccc(S(=O)(=O)N(C)C[C@@H]2Oc3c(NC(=O)C4CCCCC4)cccc3C(=O)N([C@@H](C)CO)C[C@H]2C)cc1 please
OUTPUT: -0.334% (inactive)

INPUT: Entry COc1ccc(S(=O)(=O)N(C)C[C@@H]2Oc3c(NC(=O)Nc4cccc5ccccc45)cccc3C(=O)N([C@H](C)CO)C[C@@H]2C)cc1 please
OUTPUT: 3.88% (inactive)

INPUT: Entry COc1ccc(S(=O)(=O)N(C)C[C@@H]2Oc3c(NC(=O)Nc4ccc(F)cc4)cccc3C(=O)N([C@H](C)CO)C[C@H]2C)cc1 please
OUTPUT: 20.3% (inactive)

INPUT: Entry Cc1ccc(S(=O)(=O)N(C)C[C@@H]2Oc3c(NC(=O)Nc4cccc5ccccc45)cccc3C(=O)N([C@H](C)CO)C[C@H]2C)cc1 please
OUTPUT: -10.1% (inactive)
